Origin of values: ChEMBL document CHEMBL1961873

ASSAYED_SYSTEM: Serine/threonine-protein kinase pim-1 (Homo sapiens) (UniProt P11309)
Sequence (P11309 whole entry, looked up): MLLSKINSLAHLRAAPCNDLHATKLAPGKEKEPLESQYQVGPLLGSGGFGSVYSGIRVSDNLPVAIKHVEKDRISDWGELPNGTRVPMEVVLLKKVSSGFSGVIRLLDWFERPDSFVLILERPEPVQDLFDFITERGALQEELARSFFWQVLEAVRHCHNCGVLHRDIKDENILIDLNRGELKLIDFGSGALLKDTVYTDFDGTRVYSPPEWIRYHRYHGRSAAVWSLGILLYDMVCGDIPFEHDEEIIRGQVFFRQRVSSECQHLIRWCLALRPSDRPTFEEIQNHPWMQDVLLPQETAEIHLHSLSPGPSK
CONDITION_PARAMETERS: at 1 µM
Catalogue of inhibition values

COMPOUND: Cc1nnc(-c2ccc(C)c(-c3ccc(C(=O)Nc4cccc(C#N)c4)cc3)c2)o1
ASSAYED_SYSTEM: Serine/threonine-protein kinase pim-1 (Homo sapiens) (UniProt P11309)
UNIT_OF_MEASUREMENT: %
inhibition: 0.66
--
COMPOUND: NS(=O)(=O)c1ccc(N/N=C2\C(=O)Nc3ccc(C(=O)NCCc4c[nH]cn4)cc32)cc1
ASSAYED_SYSTEM: Serine/threonine-protein kinase pim-1 (Homo sapiens) (UniProt P11309)
UNIT_OF_MEASUREMENT: %
inhibition: 51.7
--
COMPOUND: N#Cc1c(NC(=O)c2cccc3ccccc23)sc2c1CCCC2
ASSAYED_SYSTEM: Serine/threonine-protein kinase pim-1 (Homo sapiens) (UniProt P11309)
UNIT_OF_MEASUREMENT: %
inhibition: 0.27
--
COMPOUND: CC1=C(C(=O)Nc2ccc3[nH]ncc3c2)C(c2ccc(F)cc2)NC(=O)N1 (stereo not given)
ASSAYED_SYSTEM: Serine/threonine-protein kinase pim-1 (Homo sapiens) (UniProt P11309)
UNIT_OF_MEASUREMENT: %
inhibition: -0.04
--
COMPOUND: COC(=O)Nc1nc2cc(Oc3ccc(NC(=O)Nc4cccc(C(=O)O)c4)cc3)ccc2[nH]1
ASSAYED_SYSTEM: Serine/threonine-protein kinase pim-1 (Homo sapiens) (UniProt P11309);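 further: reported figures are mean percent inhibition of PIM1 kinase activity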
UNIT_OF_MEASUREMENT: %
inhibition: 0.62

###

Catalogue of inhibition values
ASSAYED_SYSTEM: Homeodomain-interacting protein kinase 1 (Homo sapiens) (UniProt Q86Z02);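 further: each value is a mean percent inhibition of HIPK1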
Sequence (Q86Z02 whole entry, looked up): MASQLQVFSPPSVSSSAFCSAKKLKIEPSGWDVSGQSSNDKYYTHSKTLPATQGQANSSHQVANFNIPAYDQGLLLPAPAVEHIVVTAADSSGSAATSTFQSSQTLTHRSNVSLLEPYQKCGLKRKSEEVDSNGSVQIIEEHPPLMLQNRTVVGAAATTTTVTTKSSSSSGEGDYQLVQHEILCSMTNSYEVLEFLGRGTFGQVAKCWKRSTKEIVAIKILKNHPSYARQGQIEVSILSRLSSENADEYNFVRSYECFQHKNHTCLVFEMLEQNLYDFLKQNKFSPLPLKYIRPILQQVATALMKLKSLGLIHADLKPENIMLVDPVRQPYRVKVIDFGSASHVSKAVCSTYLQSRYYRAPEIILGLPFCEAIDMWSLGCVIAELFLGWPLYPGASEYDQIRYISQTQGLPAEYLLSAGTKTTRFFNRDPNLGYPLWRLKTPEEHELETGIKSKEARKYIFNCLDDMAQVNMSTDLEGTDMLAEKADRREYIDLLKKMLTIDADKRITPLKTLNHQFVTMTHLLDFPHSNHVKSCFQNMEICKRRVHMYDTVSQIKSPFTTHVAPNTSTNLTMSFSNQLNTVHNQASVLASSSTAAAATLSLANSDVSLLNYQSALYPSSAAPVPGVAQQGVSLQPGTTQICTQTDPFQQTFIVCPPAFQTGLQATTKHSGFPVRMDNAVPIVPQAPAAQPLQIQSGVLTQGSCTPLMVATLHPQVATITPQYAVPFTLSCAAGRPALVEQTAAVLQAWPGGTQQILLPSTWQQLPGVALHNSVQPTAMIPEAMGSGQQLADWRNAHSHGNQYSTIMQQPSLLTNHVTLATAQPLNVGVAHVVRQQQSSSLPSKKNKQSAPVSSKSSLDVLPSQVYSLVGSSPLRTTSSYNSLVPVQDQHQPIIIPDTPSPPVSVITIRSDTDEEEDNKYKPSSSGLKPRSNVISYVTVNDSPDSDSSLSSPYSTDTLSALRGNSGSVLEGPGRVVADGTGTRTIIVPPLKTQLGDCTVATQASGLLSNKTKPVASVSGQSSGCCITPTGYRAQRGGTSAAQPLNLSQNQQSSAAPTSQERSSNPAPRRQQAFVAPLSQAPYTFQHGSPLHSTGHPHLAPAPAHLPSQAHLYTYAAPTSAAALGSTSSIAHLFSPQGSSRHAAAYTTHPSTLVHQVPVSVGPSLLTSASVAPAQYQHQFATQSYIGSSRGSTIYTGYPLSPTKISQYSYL
CONDITION_PARAMETERS: at 0.1 µM

MOLECULE: CC1=C(C(=O)Nc2ccc3[nH]ncc3c2)C(c2ccc(F)cc2)NC(=O)N1 (stereo not given)
inhibition (%): -0.95

MOLECULE: COc1cc2ncn(-c3cc(OCc4ccccc4C(F)(F)F)c(C(N)=O)s3)c2cc1OC
inhibition (%): -1.28

MOLECULE: CCn1c(-c2nonc2N)nc2c(C#CC(C)(C)O)nc(OC[C@@H](N)c3ccccc3)cc21
inhibition (%): 1.19

MOLECULE: Cc1ccc(C(=O)NC2CCCCC2)cc1-c1ccc(C(=O)NCC2CC2)cc1
inhibition (%): -0.44

MOLECULE: O=C(Nc1n[nH]c2nc(-c3ccco3)c(Br)cc12)C1CC1
inhibition (%): -1.07

MOLECULE: COc1ccc2cc(-c3c(-c4ccncc4)nc(-c4ccc([S+](C)[O-])cc4)n3C)ccc2c1 (stereo not given)
inhibition (%): -1.81

MOLECULE: COc1cc2c(cc1Nc1nc(N3CCc4ccccc43)c3cc[nH]c3n1)N(C(=O)CN(C)C)CC2
inhibition (%): -1.15

MOLECULE: CCn1c(-c2nonc2N)nc2ccncc21
inhibition (%): -3.19

MOLECULE: CS(=O)(=O)Nc1ccc(N/C=C2\C(=O)Nc3ccccc32)cc1
inhibition (%): -1.53

MOLECULE: COc1cc(C)c(NC(=O)CN(C)C)cc1Nc1nc(Nc2cccc(F)c2C(N)=O)c2cc[nH]c2n1
inhibition (%): 13.9

MOLECULE: COc1ccc(COc2ccc(Cc3cnc(N)nc3N)cc2OC)cc1
inhibition (%): -1.6

MOLECULE: COC(=O)Nc1nc2cc(Oc3ccc(NC(=O)Nc4cccc(C(=O)O)c4)cc3)ccc2[nH]1
inhibition (%): -2.08

MOLECULE: Fc1cccc(COc2ccc(Nc3ncnc4sc(-c5cccs5)cc34)cc2Cl)c1
inhibition (%): -5.41

MOLECULE: Fc1cccc(COc2ccc(Nc3ncnc4cc(-c5ccc[nH]5)sc34)cc2Cl)c1
inhibition (%): -5.52

MOLECULE: COc1cc(C=NNc2ncnc3c2cnn3-c2ccccc2)ccc1O
inhibition (%): 3.83

MOLECULE: Nc1nc(-c2ccc3c(c2)C(=Cc2cc(Br)c(O)c(Br)c2)C(=O)N3)cs1
inhibition (%): -1.1

MOLECULE: COc1cc2ncn(-c3cc(O[C@H](C)c4ccccc4Cl)c(C(N)=O)s3)c2cc1OC
inhibition (%): 3.82

MOLECULE: CCc1cccc(NC(=O)Nc2ccc(Oc3ccc4nc(NC(=O)OC)[nH]c4c3)cc2)c1
inhibition (%): 1.47

MOLECULE: NC(=O)c1cccc(Nc2nccc(Nc3cccc4[nH]ncc34)n2)c1
inhibition (%): 1.13

MOLECULE: COc1cc2ncn(-c3cc(OCc4ccccc4Cl)c(C(N)=O)s3)c2cc1OC
inhibition (%): 0.06
